system: PAK2 (human), Q13177 [T402E]; experiment: radiometric filter-binding kinase assay; conditions: compound 0.01 µM
Sequence (Q13177 whole entry T402E, looked up): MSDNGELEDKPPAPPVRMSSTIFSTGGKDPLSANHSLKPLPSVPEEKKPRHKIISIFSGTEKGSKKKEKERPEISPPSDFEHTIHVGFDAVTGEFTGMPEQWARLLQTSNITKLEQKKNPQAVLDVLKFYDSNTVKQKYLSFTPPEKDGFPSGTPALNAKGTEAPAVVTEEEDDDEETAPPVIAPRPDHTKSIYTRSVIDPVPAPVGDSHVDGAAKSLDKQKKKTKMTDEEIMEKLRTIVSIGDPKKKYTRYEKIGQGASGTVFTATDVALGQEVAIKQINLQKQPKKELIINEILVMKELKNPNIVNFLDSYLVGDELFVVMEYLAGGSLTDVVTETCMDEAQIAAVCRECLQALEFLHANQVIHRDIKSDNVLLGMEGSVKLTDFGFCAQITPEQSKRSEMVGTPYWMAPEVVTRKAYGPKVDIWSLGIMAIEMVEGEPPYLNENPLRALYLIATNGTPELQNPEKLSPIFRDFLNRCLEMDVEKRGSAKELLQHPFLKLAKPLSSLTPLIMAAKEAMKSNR
Listed here are molecules together with their documented residual activity.
Give the quantity in %, number only.

Query: residual activity; subject: CNc1nc(-c2ccc3c(N)n[nH]c3c2)cc(N2C[C@@H](C(=O)NC3CCCCC3)CC[C@H]2C)n1 105

Quick one: residual activity of CNC(=O)C1[C@H]2O[C@@](C)([C@@H]1N)n1c3ccccc3c3c4c(c5c6ccccc6n2c5c31)C(=O)NC4 (stereo not given in full) ? 71

Query: residual activity; subject: COc1cc(O)c2c(c1)[C@H]1OC1C[C@H](O)[C@H](O)C(=O)/C=C\C[C@H](C)OC2=O (stereo not given in full) 99

# get_value(readout='residual activity', item= O=C(Nc1nc2cc(C(F)(F)F)cc(NC3CC3)n2n1)c1cccnc1 ) 110

Would you kindly share the measured residual activity for COc1ccc(N(C(=O)Nc2c(C)cccc2C)c2cc(Nc3ccc(N4CCN(C)CC4)cc3)ncn2)c(OC)c1 ? 87

====

residual activity for assorted compounds
molecular target: STK33 (human); test: radiometric filter-binding kinase assay; settings: compound 1.0 µM
// note: answer is a bare numeric in %

Lab note: need residual activity for c1ccc2c(-c3cnn4cc(-c5ccc(N6CCNCC6)cc5)cnc34)ccnc2c1 on STK33 (human), anyone have it? 44

Item CNc1nc(-c2ccc3c(N)n[nH]c3c2)cc(N2C[C@@H](C(=O)NC3CCCCC3)CC[C@H]2C)n1 with STK33 (human) - residual activity? 89

residual activity of Cc1cc(NC(=O)c2cccc(NC(=O)/C=C/CN(C)C)c2)ccc1Nc1nccc(-c2cccnc2)n1 on STK33 (human)? 90

Query the reported residual activity for STK33 (human); item: COc1ccc(-n2ncc3cnc(Nc4cc(OC)c(OC)c(OCCCN5CCN(C)CC5)c4)nc32)cc1 23

Find the measured residual activity: item O=C(N[C@@H](COc1ccc2[nH]c(=O)[nH]c2c1)c1ccccc1)c1cccn(Cc2ccc(F)c(F)c2)c1=O , target or system STK33 (human). 107

# value lookup — system STK33 (human), readout residual activity, item Cc1ccc(=O)n(-c2ccccc2)c1 82

Quick check: residual activity on STK33 (human), item Nc1cccc2c1CN(C1CCC(=O)NC1=O)C2=O (stereo unspecified) ? 128

Could you share what residual activity was measured for NCC(=O)Nc1ccc(-n2nc(C(F)(F)F)cc2-c2ccc3c(ccc4ccccc43)c2)cc1 , tested on STK33 (human)? 91

# get_value(readout= residual activity, system= STK33 (human)) for CCCCCc1ccc(/C=C/[C@H](O)[C@@H](CO)NC)cc1 100

Lab request: please report residual activity under test system STK33 (human) for CNC(=O)C1[C@H]2O[C@@](C)([C@@H]1N)n1c3ccccc3c3c4c(c5c6ccccc6n2c5c31)C(=O)NC4 (stereo partly specified) 23

Return residual activity measured with STK33 (human) given this compound: COc1cc(O)c2c(c1)/C=C/C[C@H](O)[C@H](O)C(=O)/C=C\C[C@H](C)OC2=O 85

// map O=C(Nc1cccnc1)c1cc(-c2ccnc(F)c2)ccc1OCc1ccccc1 to recorded residual activity (system: STK33 (human)) 64

Could you share what residual activity was measured for Cc1ccc(-c2ccc3c(ccc4sc5c(c43)NC[C@@H](C)NC5=O)n2)cn1 , tested on STK33 (human)? 83

Any idea what residual activity came out for CN(C)C/C=C/C(=O)Nc1cccc(C(=O)Nc2ccc(Nc3nccc(-c4cccnc4)n3)cc2)c1 on STK33 (human)? 91

Write down the reported residual activity of O=C(NCCCNc1nc(Nc2cccc(CN3CCOCC3)c2)ncc1C1CC1)C1CCC1 , test system: STK33 (human). 52

Short answer please: residual activity, STK33 (human), entry COc1ccc(N(C(=O)Nc2c(C)cccc2C)c2cc(Nc3ccc(N4CCN(C)CC4)cc3)ncn2)c(OC)c1 107
